Test system: SR leukemia
Assay: NCI tumour cell line growth inhibition, 48 h; in the data active = GI50 below about 0.43 µM; inactive = the rest
Field 'call' accepts active, inactive

Solved cases (2 shown):
INSERT INTO results (compound, class_name) VALUES
  ('C#Cc1cccc(NC(=O)c2ccc(NC(=O)CCl)cc2)c1', 'inactive'),
  ('COc1ccc(OC)c(/C=C/c2nc(SCc3ccccc3)n(-c3ccc(Cl)cc3)n2)c1', 'inactive');

Each compound tested received a call. Report the one for C[CH2][Sn]([CH2]C)([O]C(=O)c1ccc(OC)c(OC)c1OC)[O]C(=O)c1ccc(OC)c(OC)c1OC . inactive

Each compound tested received a call. Report the one for COC(=O)[C@]12CC[C@@H](C)[C@H](C)[C@@H]1C1=CC[C@@H]3[C@@]4(C)C(C=O)=C[C@@](C)(COC(=O)/C=C/c5ccccc5)[C@@H]4[C@H](O)C[C@@]3(C)[C@]1(C)CC2 . inactive

Each compound tested received a call. Report the one for CC1=C([Se]CC(OC(=O)[C@@H](CO)NC(=O)OC(C)(C)C)C(=O)NCCCCCC(=O)OCc2ccccc2)C(=O)c2ccccc2C1=O (stereo partly specified) . inactive

Each compound tested received a call. Report the one for Nc1c(F)cc(-c2nc3cc(F)ccc3[se]2)cc1Br . active

* * *

This section presents compounds with their documented TGI values.
Test system: SF-295 CNS
Assay: NCI tumour cell line growth inhibition, 48 h

Answered examples (4):
INSERT INTO measurements (compound, experimental_endpoint, val) VALUES
  ('c1ccc2c(NCCCCCCNc3cccc4ccccc34)cccc2c1', 'TGI', '> 100 µM'),
  ('CC1=C2C3OC(=O)C(C)C3CCC2(C)C=CC1=Nc1ccccc1 (stereo not given)', 'TGI', '> 100 µM'),
  ('C=CCN(N=O)C(=O)NCCCCC(NC(C)=O)C(=O)NCc1ccccc1 (stereo not given)', 'TGI', '> 100 µM'),
  ('Cc1ccc2nc(NC(=O)/C(=N\NC(=S)NN)C3C(=O)NC(=S)NC3=O)sc2c1', 'TGI', '> 100 µM');

Turning now to a further compound:
Given the entry CSc1ccc(C(=O)/C=C/c2ccccc2Cl)cc1 , report its measured TGI. 33.1 µM

* * *

System: U251 CNS
Assay: NCI tumour cell line growth inhibition, 48 h
Experimental endpoint: TGI

INSERT INTO results (compound, target_or_system, val) VALUES
  ('O=C1CCCc2ccc3c(c21)CC1(Cc2ccccc2C1)C3', 'U251 CNS', '> 100 µM');

Given the entry S=C(N1CCN(c2ccccc2)CC1)N1CCN(c2ccccc2)CC1 , report its measured TGI. > 100 µM

Given the entry COC1=CC(=O)c2nc(Cl)ccc2C1=O , report its measured TGI. 3.03 µM

* * *

This section presents compounds with their documented TGI values.
Tested on: HL-60(TB) leukemia
Experiment: NCI tumour cell line growth inhibition, 48 h

INSERT INTO assay_data (compound, val) VALUES
  ('COC1CC(O[C@H]2CC[C@@]3(C)[C@@H](CC[C@]4(O)[C@@H]3CC[C@]3(C)[C@@H](C(C)=O)[C@H](OC(=O)CC(C)C)[C@@H](OC(=O)c5ccccc5)[C@@]34O)C2)OC(C)C1OC1CC(OC)C(OC2OC(C)C(O)C(OC)C2O)C(C)O1 (stereo partly drawn)', '> 25 µM'),
  ('N#Cc1ccc(C2NN=CC23C(=O)c2ccccc2OC3c2ccccc2)cc1 (stereo not drawn)', '> 100 µM');

For HL-60(TB) leukemia, provide TGI of CC1(C)C2CCC(O)(C2)C1N (stereo not drawn) please. > 31.6 µM

For HL-60(TB) leukemia, provide TGI of C=CCN(N=O)C(=O)NCCCCC(NC(C)=O)C(=O)NCc1ccccc1 (stereo not drawn) please. > 100 µM

For HL-60(TB) leukemia, provide TGI of O=c1c2c(c1=O)-c1ccccc1CN2 please. > 100 µM

For HL-60(TB) leukemia, provide TGI of Nc1ncnc2c1ccn2[C@@H]1O[C@H]([C@H](O)c2ccc(Cl)c(F)c2)[C@@H](O)[C@H]1O please. > 100 µM

For HL-60(TB) leukemia, provide TGI of CN(CCCn1ccnc1[N+](=O)[O-])CCCn1ccnc1[N+](=O)[O-] please. > 100 µM

For HL-60(TB) leukemia, provide TGI of c1ccc2c(NCCCCCCNc3cccc4ccccc34)cccc2c1 please. > 100 µM

For HL-60(TB) leukemia, provide TGI of CC1CN=C(Nc2ccc(F)c(Cl)c2)S1 (stereo not drawn) please. > 100 µM

For HL-60(TB) leukemia, provide TGI of COC(=O)C(/C(=N\NC(N)=S)C(=O)Nc1ccccc1[N+](=O)[O-])c1cnc2ccccc2n1 (stereo not drawn) please. > 100 µM

For HL-60(TB) leukemia, provide TGI of COc1cccc(/C=C\c2ccc(O)cc2)c1 please. 2.92 µM

For HL-60(TB) leukemia, provide TGI of CSc1ccc(C(=O)/C=C/c2ccccc2Cl)cc1 please. 90.3 µM

* * *

Tested on: HOP-92 NSCLC
Assay: NCI tumour cell line growth inhibition, 48 h
Experimental endpoint: GI50

Answered examples (6):
INSERT INTO assay_data (compound, target_or_system, experimental_endpoint, val) VALUES
  ('CC1=C([Se]CC(OC(=O)[C@@H](CO)NC(=O)OC(C)(C)C)C(=O)NCCCCCC(=O)OCc2ccccc2)C(=O)c2ccccc2C1=O (some centres not stated)', 'HOP-92 NSCLC', 'GI50', '1.87 µM'),
  ('Cc1ccc(S(=O)(=O)Nc2ccc(-c3cc(-c4cccc(F)c4)c(C#N)c(N)n3)cc2)cc1', 'HOP-92 NSCLC', 'GI50', '1.06 µM'),
  ('C/C(=N/N=C(N)N)c1ccc(NC(=O)Nc2ccc(/C(C)=N/N=C(N)N)cc2)cc1', 'HOP-92 NSCLC', 'GI50', '14.2 µM'),
  ('COc1cc(/C=C2\C[C@H]3[C@@H]4CC=C5C[C@@H](OC(C)=O)CC[C@]5(C)[C@H]4CC[C@]3(C)[C@H]2OC(C)=O)ccc1OCCN1CCCC1', 'HOP-92 NSCLC', 'GI50', '5.45 µM'),
  ('C[CH2][Sn]([CH2]C)([O]C(=O)c1ccc(OC)c(OC)c1OC)[O]C(=O)c1ccc(OC)c(OC)c1OC', 'HOP-92 NSCLC', 'GI50', '21.8 µM'),
  ('CN(C)CCNC(=O)NC[C@H]1CC[C@@H]2[C@H](O1)c1cc(C(F)(F)F)ccc1N[C@H]2c1ccccc1', 'HOP-92 NSCLC', 'GI50', '1.25 µM');

Turning now to a further compound:
Given the entry COc1ccc(/C=C2\c3cc(OC)c(OC)c(OC)c3CC[C@@H]2O)cc1F , report its measured GI50. 25 µM

* * *

This section presents compounds with their documented TGI values.
System: SN12C renal
Assay: NCI tumour cell line growth inhibition, 48 h

Answered examples (2):
INSERT INTO assay_data (compound, experimental_endpoint, val) VALUES
  ('CCCCc1ccc(C#CC#Cc2ccc(CCCC)s2)s1', 'TGI', '> 100 µM'),
  ('CCOP1(=O)C=C(C)C(=C(Cl)Cl)C(C)=C1 (configuration not stated)', 'TGI', '> 100 µM');

For SN12C renal, provide TGI of CC1CC[P+](c2ccccc2)(c2ccccc2)CC1 please. > 100 µM

For SN12C renal, provide TGI of CCOC(=O)C1(Br)S(=O)(=O)OCCOS1(=O)=O please. > 100 µM

For SN12C renal, provide TGI of COc1ccc(/C=C2\c3cc(OC)c(OC)c(OC)c3CC[C@@H]2O)cc1F please. > 100 µM

* * *

Test system: OVCAR-3 ovarian
Assay: NCI tumour cell line growth inhibition, 48 h
Experimental endpoint: TGI

Answered examples (5):
INSERT INTO measurements (compound, experimental_endpoint, val) VALUES
  ('CCO/C(Cc1ccc(Cl)cc1)=N/NC(N)=S', 'TGI', '> 100 µM'),
  ('C/C(=N/Nc1nc(C)cc(=O)[nH]1)C(=O)O', 'TGI', '> 100 µM'),
  ('Cc1ccc(NC(=O)OCC(COc2ccc(Cl)cc2Cl)OC(=O)Nc2ccc(C)cc2)cc1 (centres undefined)', 'TGI', '> 100 µM'),
  ('COC(=O)C1(C)NCCc2c1[nH]c1ccccc21 (centres undefined)', 'TGI', '> 100 µM'),
  ('O=C(C/C=C/c1ccccc1)c1ccccc1', 'TGI', '> 100 µM');

Given the entry CC(=O)/C(C=Nc1c(C)n(C)n(C)c1=O)=C(/O)c1ccccc1 , report its measured TGI. > 50 µM

Given the entry COC(=O)/C(C#N)=C(\N)c1c(C)c2ccccc2oc1=N , report its measured TGI. > 100 µM

Given the entry COc1ccc(OC)c2c3c([nH]c12)C(=O)Nc1nc(N)nc(N)c1C3 , report its measured TGI. > 100 µM

Given the entry CCOC1CC2OC(=O)C1C=C2C(=O)OC (centres undefined) , report its measured TGI. 75.1 µM
